Catalogue of viability at 10 µM readings, one per entry.
Test system: EKVX
Assay: Cytotoxicity against human EKVX cells assessed as cell viability at 10 uM incubated for 48 hrs by sulforhodamine B assay relative to control
Type: functional
Conditions: read-out: Activity
propertyLabel: viability at 10 µM (%)

structuresmiles=O=C(NCCCNc1nccc(-c2c(-c3cccc(F)c3)nc3sccn23)n1)c1ccc(C(F)(F)F)cc1 propertylabel="viability at 10 µM" assayresult=72.2
structuresmiles=O=S(=O)(NCCNc1nccc(-c2c(-c3cccc(F)c3)nc3sccn23)n1)c1ccc(C(F)(F)F)cc1 propertylabel="viability at 10 µM" assayresult=86.5
structuresmiles=O=C(NCCNc1nccc(-c2c(-c3cccc(F)c3)nc3sccn23)n1)C1CCCCC1 propertylabel="viability at 10 µM" assayresult=80.4
structuresmiles=O=S(=O)(NCCCNc1nccc(-c2c(-c3cccc(F)c3)nc3sccn23)n1)c1ccc(C(F)(F)F)cc1 propertylabel="viability at 10 µM" assayresult=87.3
structuresmiles=O=S(=O)(NCCNc1nccc(-c2c(-c3cccc(F)c3)nc3sccn23)n1)c1cccc2ccccc12 propertylabel="viability at 10 µM" assayresult=93.9
structuresmiles=O=C(NCCNc1nccc(-c2c(-c3cccc(F)c3)nc3sccn23)n1)c1c(F)cccc1F propertylabel="viability at 10 µM" assayresult=61.2
structuresmiles=O=C(NCCNc1nccc(-c2c(-c3cccc(F)c3)nc3sccn23)n1)c1ccccc1 propertylabel="viability at 10 µM" assayresult=54.4
structuresmiles=O=S(=O)(NCCCNc1nccc(-c2c(-c3cccc(F)c3)nc3sccn23)n1)c1ccc(O)cc1 propertylabel="viability at 10 µM" assayresult=78.8
structuresmiles=O=S(=O)(NCCNc1nccc(-c2c(-c3cccc(F)c3)nc3sccn23)n1)c1ccc(Br)cc1 propertylabel="viability at 10 µM" assayresult=59.5
structuresmiles=O=S(=O)(NCCNc1nccc(-c2c(-c3cccc(F)c3)nc3sccn23)n1)c1cccc(F)c1 propertylabel="viability at 10 µM" assayresult=72.1
structuresmiles=O=C(NCCCNc1nccc(-c2c(-c3cccc(F)c3)nc3sccn23)n1)C1CCCCC1 propertylabel="viability at 10 µM" assayresult=80.8
structuresmiles=O=S(=O)(NCCCNc1nccc(-c2c(-c3cccc(F)c3)nc3sccn23)n1)c1cccc2ccccc12 propertylabel="viability at 10 µM" assayresult=56.1
structuresmiles=O=S(=O)(NCCCNc1nccc(-c2c(-c3cccc(F)c3)nc3sccn23)n1)c1cccc(F)c1 propertylabel="viability at 10 µM" assayresult=52.4
structuresmiles=O=C(NCCCNc1nccc(-c2c(-c3cccc(F)c3)nc3sccn23)n1)c1ccc(F)cc1 propertylabel="viability at 10 µM" assayresult=82
structuresmiles=O=C(NCCNc1nccc(-c2c(-c3cccc(F)c3)nc3sccn23)n1)c1ccc(Cl)cc1 propertylabel="viability at 10 µM" assayresult=63.2
